# SYSTEM_NAME: Sonic hedgehog protein (Mus musculus)
# Sequence (Q62226 25-198 limits assumed): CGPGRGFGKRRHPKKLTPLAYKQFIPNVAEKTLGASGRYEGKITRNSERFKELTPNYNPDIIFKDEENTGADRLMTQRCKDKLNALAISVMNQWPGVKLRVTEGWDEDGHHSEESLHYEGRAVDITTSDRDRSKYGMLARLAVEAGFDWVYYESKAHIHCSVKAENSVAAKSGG
# PROTOCOL: Inhibition of SHh in mouse NIH3T3 cells assessed as Gli activation
# Format: cell-based
ATTRIBUTE_MEASURED: IC50 (µM)
Numbers only, in µM.

IN: # lookup: IC50 of CCC(C)CNCC(=O)N1CCc2sccc2C1COc1cccc(C)c1 (stereo unspecified)
OUT: 10

* * *

# SYSTEM_NAME: Sonic hedgehog protein (Mus musculus)
# PROTOCOL: Inhibition of SHh palmitoylation in mouse NIH3T3 cells
# Type: cell-based
ATTRIBUTE_MEASURED: pIC50
One number for each entry, as −log10 of the molar value.

IN: Record CCC(C)CNCC(=O)N1CCc2sccc2C1COc1cccc(C)c1 (stereo unspecified) : what is its pIC50 with Sonic hedgehog protein (Mus musculus)?
OUT: 5.00

* * *

# PROTOCOL: Inhibition of SHH-mediated mouse C3H10T1/2 cell differentiation to osteoblasts
# APPLIED_CONDITIONS: c3h 10t1/2
ATTRIBUTE_MEASURED: EC50 (nM)
Give bare numbers, in nM.

IN: # lookup: EC50 of CC1=C2C[C@H]3[C@@H](CCC4=CC(=O)CC[C@@]43C)[C@@H]2CC[C@@]2(C1)O[C@@H]1C[C@H](C)CN[C@H]1[C@H]2C
OUT: 200

* * *

# SYSTEM_NAME: Protein smoothened (Homo sapiens, UniProt Q99835, D473H)
# Sequence (Q99835 28-787 D473H limits assumed): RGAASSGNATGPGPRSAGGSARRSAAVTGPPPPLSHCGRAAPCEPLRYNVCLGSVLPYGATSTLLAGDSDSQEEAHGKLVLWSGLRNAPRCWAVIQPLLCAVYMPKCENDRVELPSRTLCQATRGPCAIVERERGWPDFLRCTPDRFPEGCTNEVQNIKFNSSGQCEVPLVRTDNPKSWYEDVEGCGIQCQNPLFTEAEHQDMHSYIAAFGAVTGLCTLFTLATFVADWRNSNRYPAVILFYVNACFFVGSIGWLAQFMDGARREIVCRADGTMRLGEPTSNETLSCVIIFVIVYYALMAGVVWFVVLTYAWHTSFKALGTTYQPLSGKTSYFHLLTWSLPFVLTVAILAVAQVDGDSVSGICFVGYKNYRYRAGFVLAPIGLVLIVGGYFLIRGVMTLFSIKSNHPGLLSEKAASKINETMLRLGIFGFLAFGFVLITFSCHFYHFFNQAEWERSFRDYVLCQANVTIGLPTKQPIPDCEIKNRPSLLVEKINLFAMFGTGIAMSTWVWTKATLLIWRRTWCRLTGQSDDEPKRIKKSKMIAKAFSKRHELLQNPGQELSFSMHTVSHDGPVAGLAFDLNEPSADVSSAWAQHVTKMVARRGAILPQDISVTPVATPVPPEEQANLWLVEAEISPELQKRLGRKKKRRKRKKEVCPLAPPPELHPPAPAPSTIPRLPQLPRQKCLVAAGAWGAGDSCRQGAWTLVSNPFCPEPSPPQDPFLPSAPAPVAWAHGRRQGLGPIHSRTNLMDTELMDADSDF
# PROTOCOL: Inhibition of Smo D473H mutant (unknown origin) expressed in mouse C3H10T1/2 cells by luciferase assay
pIC50: −log10 of the molar value.
ATTRIBUTE_MEASURED: pIC50

IN: # lookup: pIC50 of Cc1c(Cc2ccccc2)nnc(N2CCN(c3cnc(C(C)(C)O)cn3)[C@H](C)C2)c1C
OUT: > 7.00
